Origin of the recorded values: ChEMBL document CHEMBL3407488

assay summary: Antagonist activity at Cav1.2b in K+-depolarized guinea pig ileum longitudinal smooth muscle assessed as inhibition of calcium-induced contraction
Type: tissue-based
assay context: Cavia porcellus
We label by threshold. Values of IC50 strictly beneath 8 µM are met. Values of 8 µM and up are not met.

[[record]]
molecule = "CCOC1(c2ccc(Br)cc2)Sc2ccccc2-n2c1noc2=O (racemic)"
assigned_category = "not met"

[[record]]
molecule = "CCO[C@@]1(c2ccc(Br)cc2)Sc2ccccc2-n2c1noc2=O"
assigned_category = "met"

[[record]]
molecule = "COc1ccc([C@@H]2Sc3ccccc3N(CCN(C)C)C(=O)[C@@H]2OC(C)=O)cc1"
assigned_category = "met"

[[record]]
molecule = "O=c1onc2n1-c1ccccc1S[C@]2(OCC(F)(F)F)c1ccc(Br)cc1"
assigned_category = "met"

[[record]]
molecule = "CC1=CSC(OCC(F)(F)F)(c2ccc(Br)cc2)c2noc(=O)n21 (racemic)"
assigned_category = "not met"

[[record]]
molecule = "CC1=CS[C@](OCC(F)(F)F)(c2ccc(Br)cc2)c2noc(=O)n21"
assigned_category = "not met"

[[record]]
molecule = "CCO[C@]1(c2ccc(Br)cc2)Sc2ccccc2-n2c1noc2=O"
assigned_category = "met"

[[record]]
molecule = "O=c1onc2n1-c1ccccc1SC2(OCC(F)(F)F)c1ccc(Br)cc1 (racemic)"
assigned_category = "not met"

[[record]]
molecule = "CC1=CS[C@@](OCC(F)(F)F)(c2ccc(Br)cc2)c2noc(=O)n21"
assigned_category = "not met"

